Molecular target: CLR/RAMP1 receptor (UniProt Q16602 23-461; O60894 27-148, limits assumed)
Sequence (Q16602 23-461 limits assumed, chain 1 of 2): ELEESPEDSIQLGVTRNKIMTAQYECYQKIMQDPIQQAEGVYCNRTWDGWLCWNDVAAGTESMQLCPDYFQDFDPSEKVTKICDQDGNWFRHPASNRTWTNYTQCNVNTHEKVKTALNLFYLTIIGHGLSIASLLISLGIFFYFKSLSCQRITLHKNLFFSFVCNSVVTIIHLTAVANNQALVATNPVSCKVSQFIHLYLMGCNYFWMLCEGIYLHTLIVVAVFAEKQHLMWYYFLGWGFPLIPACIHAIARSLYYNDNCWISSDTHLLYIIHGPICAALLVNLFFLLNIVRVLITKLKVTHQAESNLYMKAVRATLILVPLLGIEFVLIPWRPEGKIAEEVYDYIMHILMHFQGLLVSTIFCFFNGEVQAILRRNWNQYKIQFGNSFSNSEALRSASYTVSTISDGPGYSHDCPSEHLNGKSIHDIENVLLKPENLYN
Sequence (O60894 27-148 limits assumed, chain 2 of 2): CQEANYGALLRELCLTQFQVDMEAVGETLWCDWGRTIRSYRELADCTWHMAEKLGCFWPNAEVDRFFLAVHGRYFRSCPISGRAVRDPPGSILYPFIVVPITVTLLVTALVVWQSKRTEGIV
Experiment: cell-based or functional assay
* marks the point of attachment. Palmitoyl = CCCCCCCCCCCCCCCC(=O)*
readout name: CLR/RAMP1 EC50 (nM)
Please reply with the bare figure in nM and do not write the unit itself.

Problem: What value of CLR/RAMP1 EC50 has been reported for the following binder? Ac-TK(Palmitoyl)KTLRTGCRFGTCTVQKLAHQIYQFTDKDKDNSAPVDPSSPHSY-NH2 (ends and bridges not checked) [SEQ ID NO: 39]
Result: 0.2

Problem: Any idea what its CLR/RAMP1 EC50 is? The binder is Palmitoyl-KGCRFGTCTVQKLAHQIYQFTDKDAPVDPSSPHSY-NH2 (ends and bridges not checked) [SEQ ID NO: 110]
Result: 43

Problem: Which measured CLR/RAMP1 EC50 value corresponds to Ac-K(Palmitoyl)GCRFGTCTVQKLAHQIYQFTPAGRQDSAPVDPSSPHSY-NH2 (cysteine pairing not given here) [SEQ ID NO: 33] ?
Result: 0.3

Problem: State the recorded CLR/RAMP1 EC50 for this entry: miniPEG-KGCRFGTCTVQKLAHQIYQFTDKDKDNSAPVDPSSPHSY-NH2 (cysteine pairing not given here; also: K(PAL) present, lysine not given here) [SEQ ID NO: 28]
Result: 0.3
